molecular target: CCR2 (Homo sapiens); assay: MCP-1 Receptor Binding Assay in THP-1 Cells; conditions: 0.5 nM 125I labeled MCP-1, 2 hours at 30° C., read-out: Inhibition of MCP-1 Binding IC50 CCR2 Binding
Sequence (P41597 1-360 isoform P41597-2): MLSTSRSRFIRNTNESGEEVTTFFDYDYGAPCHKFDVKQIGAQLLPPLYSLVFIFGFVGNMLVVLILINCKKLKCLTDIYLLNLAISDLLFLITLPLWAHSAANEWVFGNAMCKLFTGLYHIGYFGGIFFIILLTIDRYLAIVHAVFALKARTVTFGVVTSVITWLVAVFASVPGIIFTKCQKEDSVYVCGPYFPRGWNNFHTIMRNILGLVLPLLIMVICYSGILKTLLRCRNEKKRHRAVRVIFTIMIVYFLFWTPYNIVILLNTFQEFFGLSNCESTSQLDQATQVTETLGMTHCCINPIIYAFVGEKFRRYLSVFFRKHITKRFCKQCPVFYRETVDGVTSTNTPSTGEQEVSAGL
pIC50: −log10 of the molar value.
assay-metric: pIC50

compound: Cn1c(=O)oc2ccc(C3(O)CCC(N4CC(NC(=O)CNC(=O)c5cccc(C(F)(F)F)c5)C4)CC3)cc21 (stereo not drawn) [Example 63a]
experimental-target: CCR2 (Homo sapiens)
pIC50: 6.82

compound: O=C(CNC(=O)c1cccc(C(F)(F)F)c1)NC1CN(C2CCC(O)(c3ccc(O)cc3)CC2)C1 (stereo not drawn)
experimental-target: CCR2 (Homo sapiens)
pIC50: 6.89

compound: O=C(CNC(=O)c1cccc(C(F)(F)F)c1)NC1CN(C2CCC(O)(c3ccc4c(c3)OCC4)CC2)C1 (single isomer, unassigned) [Example 33a]
experimental-target: CCR2 (Homo sapiens)
pIC50: 7.60

a. COc1ccc(C2(O)CCC(N3CC(NC(=O)CNC(=O)c4cccc(C(F)(F)F)c4)C3)CC2)cc1F (single isomer, unassigned) [Example 57a]
b. N#Cc1cccc(C2CCC(N3CC(NC(=O)CNC(=O)c4cccc(C(F)(F)F)c4)C3)CC2)c1 (single isomer, unassigned)
c. NC1(c2ccccc2)CCC(N2CC(NC(=O)CNC(=O)c3cccc(C(F)(F)F)c3)C2)CC1 (single isomer, unassigned) [Example 84a]
Request: Put the entries in order of pIC50, starting with the largest number. Please, when replying, give the labels in the order that was requested.
Result: a, b, c
(a: 7.48, b: 7.07, c: 6.62)

The reported numbers originate from patent US8513229B2.
